Tested on: Streptococcus pyogenes MH-771
measurement.protocol: antimicrobial activity, broth dilution method
Format: cell-based
setup.conditions: Streptococcus pyogenes, MH771, Streptococcus pyogenes MH-771, drug-resistant clinical isolate; read-out: minimum inhibitory concentration (MIC)
Attribute: MIC
Please respond with the number in µg/mL and leave the unit unwritten.

CCC1OC(=O)CC(OC(C)=O)C(C)C(OC2OC(C)C(OC3CC(C)(O)C(O)C(C)O3)C(N(C)C)C2OC(C)=O)C(CC=O)CC(C)C(=O)C=CC(C)=CC1COC1OC(C)C(OC(=O)C(Cl)(Cl)Cl)C(OC)C1OC (centres unmarked)
100

For the next question, use this compound.
State its MIC on Streptococcus pyogenes MH-771: CCC1OC(=O)CC(O)C(C)C(OC2OC(C)C(OC3CC(C)(O)C(OC(=O)COc4ccccc4)C(C)O3)C(N(C)C)C2O)C(CC=O)CC(C)C(=O)C=CC(C)=CC1COC1OC(C)C(O)C(OC)C1OC (centres unmarked)
6.25

----------
System: Staphylococcus aureus MS-8710
measurement.protocol: antimicrobial activity, broth dilution method
Format: cell-based
setup.conditions: Staphylococcus aureus, MS8710, Staphylococcus aureus MS-8710, drug-resistant clinical isolate; read-out: minimum inhibitory concentration (MIC)
Attribute: MIC

Any idea what its MIC is? The molecule is CCC1OC(=O)CC(OC(C)=O)C(C)C(OC2OC(C)C(OC3CC(C)(O)C(OC(=O)C(OC(C)=O)c4ccc(OC(C)=O)cc4)C(C)O3)C(N(C)C)C2O)C(CC=O)CC(C)C(=O)C=CC(C)=CC1COC1OC(C)C(O)C(OC)C1OC (stereo not shown)
50 µg/mL

Any idea what its MIC is? The molecule is CCC1OC(=O)CC(OC(C)=O)C(C)C(OC2OC(C)C(OC3CC(C)(O)C(OC(=O)CSCc4ccccc4)C(C)O3)C(N(C)C)C2O)C(CC=O)CC(C)C(=O)C=CC(C)=CC1COC1OC(C)C(O)C(OC)C1OC (stereo not shown)
12.5 µg/mL

Any idea what its MIC is? The molecule is CCC1OC(=O)CC(O)C(C)C(OC2OC(C)C(OC3CC(C)(O)C(OC(=O)CSc4ccccc4)C(C)O3)C(N(C)C)C2O)C(CC=O)CC(C)C(=O)C=CC(C)=CC1COC1OC(C)C(O)C(OC)C1OC (stereo not shown)
6.25 µg/mL

Any idea what its MIC is? The molecule is CCC1OC(=O)CC(O)C(C)C(OC2OC(C)C(OC3CC(C)(O)C(OC(=O)CSc4ccncc4)C(C)O3)C(N(C)C)C2O)C(CC=O)CC(C)C(=O)C=CC(C)=CC1COC1OC(C)C(O)C(OC)C1OC (stereo not shown)
12.5 µg/mL

Any idea what its MIC is? The molecule is CCC(=O)OC1C(OC2C(CC=O)CC(C)C(=O)C=CC(C)=CC(COC3OC(C)C(O)C(OC)C3OC)C(CC)OC(=O)CC(O)C2C)OC(C)C(OC2CC(C)(O)C(O)C(C)O2)C1N(C)C (stereo not shown) [2'-propionyltylosin, reference compound]
> 200 µg/mL

Any idea what its MIC is? The molecule is CCC1OC(=O)CC(OC(C)=O)C(C)C(OC2OC(C)C(OC3CC(C)(O)C(OC(=O)C(C)c4ccccc4)C(C)O3)C(N(C)C)C2O)C(CC=O)CC(C)C(=O)C=CC(C)=CC1COC1OC(C)C(O)C(OC)C1OC (stereo not shown)
25 µg/mL

Any idea what its MIC is? The molecule is CCC1OC(=O)CC(OC(C)=O)C(C)C(OC2OC(C)C(OC3CC(C)(O)C(OC(=O)C(OC(C)=O)c4ccccc4)C(C)O3)C(N(C)C)C2O)C(CC=O)CC(C)C(=O)C=CC(C)=CC1COC1OC(C)C(O)C(OC)C1OC (stereo not shown)
100 µg/mL

Any idea what its MIC is? The molecule is CCC1OC(=O)CC(O)C(C)C(OC2OC(C)C(OC3CC(C)(O)C(OC(=O)COc4ccccc4)C(C)O3)C(N(C)C)C2O)C(CC=O)CC(C)C(=O)C=CC(C)=CC1COC1OC(C)C(O)C(OC)C1OC (stereo not shown)
25 µg/mL

Any idea what its MIC is? The molecule is CCC1OC(=O)CC(OC(C)=O)C(C)C(OC2OC(C)C(OC3CC(C)(O)C(OC(=O)C(Cc4ccc(OC(C)=O)cc4)OC(C)=O)C(C)O3)C(N(C)C)C2O)C(CC=O)CC(C)C(=O)C=CC(C)=CC1COC1OC(C)C(O)C(OC)C1OC (stereo not shown)
25 µg/mL

Any idea what its MIC is? The molecule is CCC1OC(=O)CC(O)C(C)C(OC2OC(C)C(OC3CC(C)(O)C(OC(=O)CSc4ccc(C)cc4)C(C)O3)C(N(C)C)C2O)C(CC=O)CC(C)C(=O)C=CC(C)=CC1COC1OC(C)C(O)C(OC)C1OC (stereo not shown)
25 µg/mL

Any idea what its MIC is? The molecule is CCC1OC(=O)CC(O)C(C)C(OC2OC(C)C(OC3CC(C)(O)C(OC(=O)CCc4ccccc4)C(C)O3)C(N(C)C)C2O)C(CC=O)CC(C)C(=O)C=CC(C)=CC1COC1OC(C)C(O)C(OC)C1OC (stereo not shown)
12.5 µg/mL

Any idea what its MIC is? The molecule is CCC1OC(=O)CC(OC(C)=O)C(C)C(OC2OC(C)C(OC3CC(C)(O)C(O)C(C)O3)C(N(C)C)C2OC(C)=O)C(CC=O)CC(C)C(=O)C=CC(C)=CC1COC1OC(C)C(OC(=O)CCl)C(OC)C1OC (stereo not shown)
100 µg/mL

Any idea what its MIC is? The molecule is CCC1OC(=O)CC(O)C(C)C(OC2OC(C)C(OC3CC(C)(O)C(OC(=O)CCC4CCCCC4)C(C)O3)C(N(C)C)C2O)C(CC=O)CC(C)C(=O)C=CC(C)=CC1COC1OC(C)C(O)C(OC)C1OC (stereo not shown)
12.5 µg/mL
